Measured IC50 accompanies every entry in the list below.
Target: human A2B adenosine receptor (Homo sapiens, UniProt P29275)
Sequence (P29275 1-332): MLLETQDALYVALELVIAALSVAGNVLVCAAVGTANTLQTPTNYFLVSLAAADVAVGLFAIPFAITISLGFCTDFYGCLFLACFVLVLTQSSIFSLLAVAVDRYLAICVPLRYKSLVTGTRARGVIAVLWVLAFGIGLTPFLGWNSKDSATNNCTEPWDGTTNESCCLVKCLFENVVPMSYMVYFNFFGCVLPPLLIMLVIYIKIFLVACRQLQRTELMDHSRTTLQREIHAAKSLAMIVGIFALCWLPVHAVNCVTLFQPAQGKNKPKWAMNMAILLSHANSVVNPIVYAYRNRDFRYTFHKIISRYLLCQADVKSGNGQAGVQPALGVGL
Assay: Cyclic AMP assay, antagonism of NECA-stimulated cAMP in CHO cells transfected with human A2B receptors
Type: cell-based
Conditions: inhibition of NECA (100 nM)-stimulated cAMP; geometric mean (95% confidence limits)
Please respond with the number in µM and leave the unit unwritten.

CCCn1c(=O)c2[nH]c(-c3cc(NC(=O)Cc4ccccc4)nn3C)nc2n(CCC)c1=O	0.103
CCCn1c(=O)c2[nH]c(-c3cc(NC(=O)Cc4ccc(Cl)cc4)nn3C)nc2n(CCC)c1=O	0.128

Kindly review the next compound as well.
Would you mind telling me what IC50 value was observed for CCCn1c(=O)c2[nH]c(-c3cc(NC(=O)Cc4ccccc4)n(C)n3)nc2n(CCC)c1=O ? 0.152

---

Target: UniProtKB P29275
Test: Cyclic AMP assay, antagonism of NECA-stimulated cAMP in CHO cells transfected with human A2B receptors
Format: cell-based
Settings: inhibition of NECA (100 nM)-stimulated cAMP; geometric mean (95% confidence limits)
valueKind: pIC50
The value called pIC50 is obtained by taking minus log10 of the concentration in mol/L.

Recorded pIC50, per entry:
CCCn1c(=O)c2[nH]c(-c3cc(NC(=O)Cc4ccc(OC)c(OC)c4)nn3C)nc2n(CCC)c1=O	6.92
CCCn1c(=O)c2[nH]c(-c3cc(OCC(=O)Nc4ccc(Br)cc4)nn3C)nc2n(CCC)c1=O	6.97
CCCn1c(=O)c2[nH]c(-c3cc(NC(=O)Cc4ccc(OCc5ccccc5C(F)(F)F)cc4)nn3C)nc2n(CCC)c1=O	7.03

Kindly review the next compound as well.
Provide value of pIC50 for this record tested with UniProtKB P29275: CCCn1c(=O)c2[nH]c(-c3cc(NC(=O)Cc4ccc5c(c4)OCO5)nn3C)nc2n(CCC)c1=O 7.02

---

Molecular target: UniProtKB P29275
Sequence (P29275 1-332): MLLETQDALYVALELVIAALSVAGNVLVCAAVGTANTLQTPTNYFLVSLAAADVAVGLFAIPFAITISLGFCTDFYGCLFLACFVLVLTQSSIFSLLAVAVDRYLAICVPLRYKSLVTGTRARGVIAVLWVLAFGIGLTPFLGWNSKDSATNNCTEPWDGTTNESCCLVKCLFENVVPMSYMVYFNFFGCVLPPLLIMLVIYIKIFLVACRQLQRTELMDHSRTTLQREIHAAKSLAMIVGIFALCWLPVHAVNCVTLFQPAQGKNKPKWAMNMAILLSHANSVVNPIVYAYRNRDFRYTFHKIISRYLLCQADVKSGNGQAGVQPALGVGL
Test: [3H]DPCPX binding to human A2B receptors expressed in HEK293 cells
Design: host or cells: HEK 293 cells (membranes)
Settings: geometric mean (95% confidence interval); >1000 = no appreciable binding; read-out: Ki, [3H]DPCPX binding to human A2B receptors expressed in HEK293 cells
valueKind: Ki (µM)
Please respond with the number in µM and leave the unit unwritten.

Recorded Ki, per entry:
CCCn1c(=O)c2[nH]c(-c3cc(OCC(=O)Nc4ccc(C)cc4)nn3C)nc2n(CCC)c1=O [AS59]	1.01
CCCn1c(=O)c2[nH]c(-c3cc(NC(=O)Nc4cccc(OC)c4)nn3C)nc2n(CCC)c1=O	0.09
CCCn1c(=O)c2[nH]c(-c3cc(OCC(=O)N4CCN(c5ccccc5)CC4)nn3C)nc2n(CCC)c1=O	0.015
CCCn1c(=O)c2[nH]c(-c3cc(NC(=O)Nc4ccc(N(C)C)cc4)nn3C)nc2n(CCC)c1=O	0.059
Cn1nc(N)cc1-c1nc2c([nH]1)c(=O)n(C)c(=O)n2C	0.175
CCCn1c(=O)c2[nH]c(-c3cc(NC(=O)Cc4cccc(F)c4)nn3C)nc2n(CCC)c1=O	0.05

Kindly review the next molecule as well.
Provide value of Ki for this record tested with UniProtKB P29275: CCCn1c(=O)c2[nH]c(-c3cc(NC(=O)CCCN)nn3C)nc2n(CCC)c1=O 2.06

---

Measured pKi accompanies every entry in the list below.
Target: human A1 adenosine receptor (Homo sapiens)
Construct: expressed in transfected cells; host or cells: CHO cells (membranes)
Sequence (P30542 whole entry): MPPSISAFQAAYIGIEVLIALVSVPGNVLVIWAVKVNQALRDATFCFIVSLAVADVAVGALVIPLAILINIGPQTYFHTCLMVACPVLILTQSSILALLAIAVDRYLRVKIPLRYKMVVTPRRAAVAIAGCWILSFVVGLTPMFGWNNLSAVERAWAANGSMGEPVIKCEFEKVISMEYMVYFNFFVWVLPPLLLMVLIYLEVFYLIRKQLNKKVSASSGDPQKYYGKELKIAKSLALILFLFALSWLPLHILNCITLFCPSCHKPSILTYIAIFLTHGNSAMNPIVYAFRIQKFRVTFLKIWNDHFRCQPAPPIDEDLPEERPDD
Experiment: [3H]DPCPX binding to human A1 receptors expressed in CHO cells
pKi: −log10 of the molar value.

Recorded pKi, per entry:
CCCn1c(=O)c2[nH]c(-c3cc(NC(=O)COc4ccc(Cl)cc4)nn3C)nc2n(CCC)c1=O	< 6.00
CCCn1c(=O)c2c(nc(/C=C/c3cc(COC(=O)c4ccccc4)on3)n2C)n(CCC)c1=O	< 6.00
CCCn1c(=O)c2[nH]c(-c3cc([N+](=O)[O-])cn3C)nc2n(CCC)c1=O	6.91
CCCn1c(=O)c2[nH]c(-c3cc(NC(=O)CCCNC(=O)OC(C)(C)C)nn3C)nc2n(CCC)c1=O	< 6.00
CCCn1c(=O)c2[nH]c(-c3ccc(O)nc3)nc2n(CCC)c1=O	7.09

Would you mind telling me what pKi value was observed for CCCn1c(=O)c2[nH]c(-c3cc(NC(=O)Cc4ccc(OCc5ccccc5)c(OC)c4)nn3C)nc2n(CCC)c1=O ? 5.75

Now the molecule Cn1nc(N)cc1-c1nc2c([nH]1)c(=O)n(C)c(=O)n2C < 6.00

Now the molecule CCCn1c(=O)c2c(nc(/C=C/c3cc(C(=O)OCC)n(C)c3)n2C)n(CCC)c1=O < 6.00

Now the molecule CCCn1c(=O)c2[nH]c(-c3cc(NC(=O)COc4ccc(Cl)cc4Cl)nn3C)nc2n(CCC)c1=O < 6.00

---

Biological target: human A2B adenosine receptor (Homo sapiens, UniProt P29275)
Sequence (P29275 1-332): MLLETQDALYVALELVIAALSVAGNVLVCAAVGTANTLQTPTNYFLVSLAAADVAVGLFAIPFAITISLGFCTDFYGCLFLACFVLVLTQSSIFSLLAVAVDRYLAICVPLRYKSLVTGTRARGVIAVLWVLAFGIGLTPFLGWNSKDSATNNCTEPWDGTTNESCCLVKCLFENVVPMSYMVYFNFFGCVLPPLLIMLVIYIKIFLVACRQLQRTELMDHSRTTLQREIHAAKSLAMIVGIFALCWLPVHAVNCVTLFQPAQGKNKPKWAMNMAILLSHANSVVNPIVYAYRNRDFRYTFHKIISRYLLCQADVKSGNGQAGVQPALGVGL
Assay: [3H]DPCPX binding to human A2B receptors expressed in HEK293 cells
Set-up: host or cells: HEK 293 cells (membranes)
Details: geometric mean (95% confidence interval); >1000 = no appreciable binding; read-out: Ki, [3H]DPCPX binding to human A2B receptors expressed in HEK293 cells
Measured log10 Ki accompanies every entry in the list below.
Please keep in mind that the values are log10 of Ki expressed in nM.

Recorded log10 Ki, per entry:
CCCn1c(=O)c2[nH]c(-c3ccc(O)nc3)nc2n(CCC)c1=O [AS103]	0.69
CCCn1c(=O)c2[nH]c(-c3cc(NC(=O)Cc4cccc(Cl)c4)nn3C)nc2n(CCC)c1=O [AS24]	2.20
CC(C)Cn1c(=O)c2nc(-c3cc(OCC(=O)Nc4ccc(F)cc4)nn3C)[nH]c2n(CC(C)C)c1=O [AS66]	2.48
CCCn1c(=O)c2[nH]c(-c3cc([N+](=O)[O-])cn3C)nc2n(CCC)c1=O [AS7]	2.53
CCCn1c(=O)c2[nH]c(-c3cc(OCC(=O)N4CCN(C)CC4)nn3C)nc2n(CCC)c1=O [AS87]	2.09

Kindly review the next compound as well.
Would you mind telling me what log10 Ki value was observed for CCCn1c(=O)c2[nH]c(-c3cc(N)n(C)n3)nc2n(CCC)c1=O [AS37] ? 1.76

---

Measured Ki accompanies every entry in the list below.
Target: human A2A adenosine receptor (Homo sapiens, UniProt P29274)
Construct: expressed in transfected cells; host or cells: CHO cells (membranes)
Sequence (P29274 whole entry): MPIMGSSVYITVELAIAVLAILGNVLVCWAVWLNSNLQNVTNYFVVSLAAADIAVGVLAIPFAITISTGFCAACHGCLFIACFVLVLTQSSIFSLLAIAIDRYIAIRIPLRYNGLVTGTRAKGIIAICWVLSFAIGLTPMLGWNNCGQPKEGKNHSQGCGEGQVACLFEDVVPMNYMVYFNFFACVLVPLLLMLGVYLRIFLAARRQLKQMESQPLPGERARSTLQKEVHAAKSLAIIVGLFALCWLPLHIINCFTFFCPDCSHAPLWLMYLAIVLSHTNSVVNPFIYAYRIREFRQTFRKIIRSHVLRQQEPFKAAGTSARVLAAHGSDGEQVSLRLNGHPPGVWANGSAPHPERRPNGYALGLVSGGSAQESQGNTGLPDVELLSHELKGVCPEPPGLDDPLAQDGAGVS
Assay: [3H]ZM241385 binding to human A2A receptors expressed in CHO cells
Conditions: read-out: Ki, [3H]ZM241385 binding to human A2A receptors expressed in CHO cells

Recorded Ki, per entry:
CCCn1c(=O)c2[nH]c(-c3cc(NC(=O)Cc4ccc([N+](=O)[O-])cc4)nn3C)nc2n(CCC)c1=O	> 1 µM
CCCn1c(=O)c2c(nc(/C=C/c3cc(C(=O)OCC)n(C)c3)n2C)n(CCC)c1=O	> 1 µM
CCCn1c(=O)c2[nH]c(-c3ccc(O)nc3)nc2n(CCC)c1=O	0.606 µM

Provide value of Ki for this record tested with human A2A adenosine receptor (Homo sapiens, UniProt P29274): CCCn1c(=O)c2c(nc(/C=C/c3cc(COC(=O)c4ccccc4)on3)n2C)n(CCC)c1=O > 1 µM

Now the molecule CCCn1c(=O)c2[nH]c(-c3cc(NC(=O)Cc4ccc(C(F)(F)F)cc4)nn3C)nc2n(CCC)c1=O > 1 µM

Now the molecule CCCn1c(=O)c2[nH]c(-c3cc(OCC(=O)Nc4ccc(C)c(C)c4)nn3C)nc2n(CCC)c1=O > 1 µM

Now the molecule CCCn1c(=O)c2[nH]c(-c3cc(OCC(=O)Nc4ccc(Cl)c(Cl)c4)nn3C)nc2n(CCC)c1=O > 1 µM

Now the molecule CCCn1c(=O)c2[nH]c(-c3cc(N)nn3C)nc2n(CCC)c1=O > 1 µM
